System: MDA-MB-231 complex spheroids, growth inhibition
test details: Anticancer human tumor MDA-MB-231 cell line growth inhibition [Asc];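 further: spheroids exposed to compounds for 7 days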
run conditions: second compound 0.316 µM; first compound 0.316 µM; active compounds read low
Kindly apply the following: class 1 if viability, T/C is less than 2%, class 0 in every other case.

Criterion: viability, T/C strictly below 2%. Is it met by O=C(c1ccc(F)c(F)c1Nc1ccc(I)cc1F)N1CC(O)([C@@H]2CCCCN2)C1 + CNC(C)C(=O)NC1CN(S(=O)(=O)c2cccc(S(=O)(=O)N3CCC4CCC(C(=O)NC(c5ccccc5)c5ccccc5)N4C(=O)C(NC(=O)C(C)NC)C3)c2)CCC2CCC(C(=O)NC(c3ccccc3)c3ccccc3)N2C1=O ?
class 1

# check: viability, T/C < 2% for C#Cc1c(F)ccc2cc(O)cc(-c3ncc4c(N5CC6CCC(C5)N6)nc(OCC56CCCN5CC(F)C6)nc4c3F)c12 (configuration not stated) + CNC(C)C(=O)NC1CN(S(=O)(=O)c2cccc(S(=O)(=O)N3CCC4CCC(C(=O)NC(c5ccccc5)c5ccccc5)N4C(=O)C(NC(=O)C(C)NC)C3)c2)CCC2CCC(C(=O)NC(c3ccccc3)c3ccccc3)N2C1=O
class 0

Quick check: viability, T/C of COc1c(OCCCN2CCOCC2)ccc2c3n(c(=NC(=O)c4cnc(N)nc4)nc12)CCN3 + CNC(C)C(=O)NC1CN(S(=O)(=O)c2cccc(S(=O)(=O)N3CCC4CCC(C(=O)NC(c5ccccc5)c5ccccc5)N4C(=O)C(NC(=O)C(C)NC)C3)c2)CCC2CCC(C(=O)NC(c3ccccc3)c3ccccc3)N2C1=O under 2%?
class 1

Does this compound meet the criterion viability, T/C < 2%? C#Cc1c(F)ccc2cc(O)cc(-c3ncc4c(N5CC6CCC(C5)N6)nc(OCC56CCCN5CC(F)C6)nc4c3F)c12 (configuration not stated) + Cc1c(S(C)(=O)=O)c(-c2cc(F)cc(N3CCN(c4ccc(NS(=O)(=O)c5ccc(NC(CCN6CCC(C(=O)OCCCP(=O)(O)O)CC6)CSc6ccccc6)c(S(=O)(=O)C(F)(F)F)c5)cc4)CC3)c2)c(-c2ccc(Cl)cc2)n1C(C)C
class 0

Record O=C(c1ccc(F)c(F)c1Nc1ccc(I)cc1F)N1CC(O)([C@@H]2CCCCN2)C1 + Cc1c(S(C)(=O)=O)c(-c2cc(F)cc(N3CCN(c4ccc(NS(=O)(=O)c5ccc(NC(CCN6CCC(C(=O)OCCCP(=O)(O)O)CC6)CSc6ccccc6)c(S(=O)(=O)C(F)(F)F)c5)cc4)CC3)c2)c(-c2ccc(Cl)cc2)n1C(C)C : is its viability, T/C strictly below 2%?
class 0

Quick check: does C=CC(=O)N1CCN(c2nc(=O)n(-c3c(C)ccnc3C(C)C)c3nc(-c4c(O)cccc4F)c(F)cc23)C(C)C1 (configuration not stated) + CNC(C)C(=O)NC1CN(S(=O)(=O)c2cccc(S(=O)(=O)N3CCC4CCC(C(=O)NC(c5ccccc5)c5ccccc5)N4C(=O)C(NC(=O)C(C)NC)C3)c2)CCC2CCC(C(=O)NC(c3ccccc3)c3ccccc3)N2C1=O have viability, T/C under 2%?
class 0

Please check: viability, T/C for O=C(c1cc(Cc2n[nH]c(=O)c3ccccc23)ccc1F)N1CCN(C(=O)C2CC2)CC1 + Cc1c(S(C)(=O)=O)c(-c2cc(F)cc(N3CCN(c4ccc(NS(=O)(=O)c5ccc(NC(CCN6CCC(C(=O)OCCCP(=O)(O)O)CC6)CSc6ccccc6)c(S(=O)(=O)C(F)(F)F)c5)cc4)CC3)c2)c(-c2ccc(Cl)cc2)n1C(C)C , strictly under 2% or not?
class 0

Origin of values: PubChem BioAssay AID1963443
